Sourced from patent US20230406921A1

Exercise: for every item that follows, state its recorded kon.
TESTED TARGET: T1, recombinant antigen of the extracellular region of CD47 (Sino Biological, Cat: 12283-H08H) (human, UniProt Q08722 19-139)
T1 construct: extracellular domain; also called recombinant CD47 extracellular region; CD47 recombinant protein
T1 sequence (Q08722 19-139 limits assumed): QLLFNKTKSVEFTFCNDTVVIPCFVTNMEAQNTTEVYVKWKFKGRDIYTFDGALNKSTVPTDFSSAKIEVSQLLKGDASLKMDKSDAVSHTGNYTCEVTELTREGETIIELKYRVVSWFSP
ASSAY OVERVIEW: Fortebio BLI, recombinant CD47
Answers are plain numbers, in M⁻¹ s⁻¹.

Use these answered entries as a reference point.
* hz140-Hm13/hz182-Lm8 (antibody, V domains shown, also called h182Lmut8) VH: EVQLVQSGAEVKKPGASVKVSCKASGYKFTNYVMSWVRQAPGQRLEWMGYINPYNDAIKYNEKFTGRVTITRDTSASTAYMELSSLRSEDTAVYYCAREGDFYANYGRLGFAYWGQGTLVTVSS VL: DIQMTQSPSSLSASVGDRVTITCRASQDISNYLNWYQQKPGKAPKLLLYYTSRLHSGVPSRFSGSGSGTDYTLTISSLQPEDFATYFCQQGAGRPRTFGGGTKVEIKR | 234000
* hz140-Hm13/hz182-Lm10 (antibody, V domains shown) VH: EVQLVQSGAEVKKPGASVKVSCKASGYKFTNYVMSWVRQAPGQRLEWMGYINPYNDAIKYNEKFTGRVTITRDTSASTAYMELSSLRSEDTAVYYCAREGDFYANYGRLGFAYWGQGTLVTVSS VL: DIQMTQSPSSLSASVGDRVTITCRASQDISNYLNWYQQKPGKAPKLLLYYTSRLHSGVPSRFSGSGSGTDYTLTISSLQPEDIATYFCQQGAGFPYTFGGGTKVEIKR | 176000
* hz140-Hm13/hz182-Lm6 (antibody, V domains shown) VH: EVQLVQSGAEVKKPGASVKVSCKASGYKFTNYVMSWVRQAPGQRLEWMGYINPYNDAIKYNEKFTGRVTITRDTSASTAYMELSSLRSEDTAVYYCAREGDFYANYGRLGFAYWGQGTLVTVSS VL: DIQMTQSPSSLSASVGDRVTITCRASQDISNYLNWYQQKPGKAPKLLLYYTSRLHSGVPSRFSGSGSGTDYTLTISSLQPEDFATYFCQQGATRPYTFGGGTKVEIKR | 114000
* hz140-Hm13/hz182-Lm7 (antibody, V domains shown) VH: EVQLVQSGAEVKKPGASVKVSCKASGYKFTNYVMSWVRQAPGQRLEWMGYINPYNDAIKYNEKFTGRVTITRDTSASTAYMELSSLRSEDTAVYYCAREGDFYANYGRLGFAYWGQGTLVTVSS VL: DIQMTQSPSSLSASVGDRVTITCRASQDISNYLNWYQQKPGKAPKLLLYYTSRLHSGVPSRFSGSGSGTDYTLTISSLQPEDFATYFCQQGAGFPYTFGGGTKVEIKR | 201000

Now consider the entry below.
Ask | Return reported kon; argument: hz140-Hm13/hz182-Lm3 (antibody, V domains shown) VH: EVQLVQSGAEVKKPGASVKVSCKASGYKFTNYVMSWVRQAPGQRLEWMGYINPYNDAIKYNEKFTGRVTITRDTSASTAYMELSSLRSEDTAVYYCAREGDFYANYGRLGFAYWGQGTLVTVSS VL: DIQMTQSPSSLSASVGDRVTITCRASQDISNYLNWYQQKPGKAPKLLLYYTSRLHSGVPSRFSGSGSGTDYTLTISSLQPEDIATYFCQQGAGRPYTFGGGTKVEIKR
Reply | 145000
